Entry source: patent US20250186627A1

Test system: NRG-mice bearing LNCaP tumors
Assay: Biodistribution (and PET/SPECT imaging) in NRG-mice bearing LNCaP tumors
Type: in vivo
Settings: 72 h p.i., Avg
*1 amine or outer side, *2 acyl side, *3 side chain or, on linkers, in order; H or OH if unused. Where a SMILES comes first, the peptide text is derived from it. [ ]: non-standard residue; d: D form. The star is where a group is joined. ξ: configuration not given here. ξLys(Nα-CO-ξAad) = O=C(O)CCCC(NC(=O)NC(CCCCN*)C(=O)O)C(=O)O; Butanoyl(4-(4-NO2Ph)) = O=C(CCCc1ccc([N+](=O)[O-])cc1)*; DOTA = O=C(O)CN1CCN(CC(=O)O)CCN(CC(=O)*)CCN(CC(=O)O)CC1; Butanoyl(4-(4-MeO-phenyl)) = COc1ccc(CCCC(=O)*)cc1; ξAla(9-anthryl) = NC(Cc1c2ccccc2cc2ccccc12)C(=O)O; X2 = O=C(NC(CCCCN*)C(=O)O)NC(CC(F)C(=O)O)C(=O)O; X1 = O=C(C1CCC(CN[*:1])CC1)[*:2]; ξK = NCCCCC(N)C(=O)O
Examples of molecules with documented Biodistribution: Testes follow.
PROPERTY LABEL: Biodistribution: Testes (% ID/g)

>>> result_number("COc1ccc(CCCC(=O)NCC(=O)NC(CCCCNC(=O)CN2CCN(CC(=O)[O-])CCN(CC(=O)[O-])CCN(CC(=O)[O-])CC2)CC(=O)NCC2CCC(C(=O)NC(Cc3c4ccccc4cc4ccccc34)C(=O)NCCCCC(NC(=O)NC(CC(F)C(=O)O)C(=O)O)C(=O)O)CC2)cc1.[177Lu+3] (stereo not shown) [^177Lu-CCZ02019]")
0.39
>>> result_number("O=C([O-])CN1CCN(CC(=O)[O-])CCN(CC(=O)NCCCCC(NC(=O)CNC(=O)CCCc2ccc([N+](=O)[O-])cc2)C(=O)NCC(=O)NCC2CCC(C(=O)NC(Cc3c4ccccc4cc4ccccc34)C(=O)NCCCCC(NC(=O)NC(CCCC(=O)O)C(=O)O)C(=O)O)CC2)CCN(CC(=O)[O-])CC1.[177Lu+3] (stereo not shown) [^177Lu-CCZ02017] ({Butanoyl(4-(4-NO2Ph))}-G[ξK](DOTA)G[X1][ξAla(9-anthryl)]-{ξLys(Nα-CO-ξAad)})")
0.29
>>> result_number("COc1ccc(CCCC(=O)NCC(=O)NC(CCCCNC(=O)CN2CCN(CC(=O)[O-])CCN(CC(=O)[O-])CCN(CC(=O)[O-])CC2)C(=O)NCC(=O)NCC2CCC(C(=O)NC(Cc3c4ccccc4cc4ccccc34)C(=O)NCCCCC(NC(=O)NC(CC(F)C(=O)O)C(=O)O)C(=O)O)CC2)cc1.[177Lu+3] (stereo not shown) [^177Lu-CCZ02008] ({Butanoyl(4-(4-MeO-phenyl))}-G[ξK](DOTA)G[X1][ξAla(9-anthryl)]-X2)")
0.92
>>> result_number("O=C([O-])CN1CCN(CC(=O)[O-])CCN(CC(=O)NCCCCC(NC(=O)CNC(=O)CCCc2ccc([N+](=O)[O-])cc2)C(=O)NCC(=O)NCC2CCC(C(=O)NC(Cc3c4ccccc4cc4ccccc34)C(=O)NCCCCC(NC(=O)NC(CCCC(=O)O)C(=O)O)C(=O)O)CC2)CCN(CC(=O)[O-])CC1.[225Ac+3] (stereo not shown) [^225Ac-CCZ02017] ({Butanoyl(4-(4-NO2Ph))}-G[ξK](DOTA)G[X1][ξAla(9-anthryl)]-{ξLys(Nα-CO-ξAad)})")
0.33
